Sourced from the supplement of paper PMC7877785

- measurementDescription: self-splicing fitness, log relative to wild type (ln ratio); higher = more splicing; Tetrahymena group I intron in knt gene, E. coli kanamycin selection, DiMSum; sequences stand for … in CUCUCU…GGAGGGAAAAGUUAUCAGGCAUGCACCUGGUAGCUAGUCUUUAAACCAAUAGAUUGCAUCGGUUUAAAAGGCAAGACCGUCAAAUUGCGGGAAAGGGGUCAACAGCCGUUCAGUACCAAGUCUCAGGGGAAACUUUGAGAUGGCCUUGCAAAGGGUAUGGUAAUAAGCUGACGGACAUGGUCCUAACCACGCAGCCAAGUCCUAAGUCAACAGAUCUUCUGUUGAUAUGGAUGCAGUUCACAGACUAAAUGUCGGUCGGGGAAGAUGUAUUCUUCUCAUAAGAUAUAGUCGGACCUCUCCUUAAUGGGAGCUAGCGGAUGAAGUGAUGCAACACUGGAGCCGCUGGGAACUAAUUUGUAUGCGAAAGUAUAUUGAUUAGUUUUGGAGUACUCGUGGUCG;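 also: selection with 25 µg/mL kanamycin versus none on LB agar overnight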
- experimentalConditions: 37 °C
I would appreciate it if you labelled entries satisfied when self-splicing fitness (ln) is -0.8 or higher, otherwise not satisfied.

-- ask Dear colleague, could you confirm whether `AUCUAGCAAUAUUACGUCUA` has self-splicing fitness (ln) at or above -0.8?
-- reply not satisfied

-- ask Has `GAUUAGCAAUAUUACGACUC` a recorded self-splicing fitness (ln) greater than or equal to -0.8?
-- reply satisfied

-- ask Dear colleague, could you confirm whether `CGAAAGCAAUAUUACGAGAG` has self-splicing fitness (ln) at or above -0.8?
-- reply not satisfied

-- ask Dear colleague, could you confirm whether `AUACAGCAAUAUUACGAAGU` has self-splicing fitness (ln) at or above -0.8?
-- reply not satisfied

-- ask // inclusive: self-splicing fitness (ln) at least -0.8? input: `CCUAAGCAAUAUUACGGGCG`
-- reply satisfied

-- ask Item `UUAAAGCAAUAUUACGAAUG` with self-splicing fitness (ln) of -0.8 or above?
-- reply satisfied

-- ask Can `CGCAAGCAAUAUUACGAACC` be said to have self-splicing fitness (ln) at or above -0.8?
-- reply satisfied

-- ask Decide: is the reported value of self-splicing fitness (ln) for `GACUAGCAAUAUUACGGCCG` equal to or greater than -0.8?
-- reply satisfied

-- ask Please check the record `GGUAAGCAAUAUUACGAGUG` and state if its self-splicing fitness (ln) is at or above -0.8.
-- reply not satisfied

-- ask Hello, I need to know if `CCUUAGCAAUAUUACGUUUG` has measured self-splicing fitness (ln) not below -0.8. Thanks!
-- reply not satisfied
